- measured-on: Mitogen-activated protein kinase 8 (Homo sapiens, UniProt P45983)
- Sequence (P45983 whole entry): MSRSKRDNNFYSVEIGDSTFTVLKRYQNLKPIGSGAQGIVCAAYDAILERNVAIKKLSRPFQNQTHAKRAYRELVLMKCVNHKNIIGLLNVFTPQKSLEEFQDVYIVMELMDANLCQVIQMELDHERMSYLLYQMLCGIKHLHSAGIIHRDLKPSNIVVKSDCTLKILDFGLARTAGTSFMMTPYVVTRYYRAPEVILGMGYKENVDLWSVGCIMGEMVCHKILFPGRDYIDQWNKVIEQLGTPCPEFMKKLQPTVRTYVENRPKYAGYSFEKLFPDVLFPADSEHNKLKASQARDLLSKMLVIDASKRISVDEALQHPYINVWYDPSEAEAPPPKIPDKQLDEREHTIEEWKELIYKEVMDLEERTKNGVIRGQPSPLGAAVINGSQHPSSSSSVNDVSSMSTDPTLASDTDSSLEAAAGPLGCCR
- assay: Inhibition of JNK1 using biotinylated ATF2 and ATP substrates by HTRF assay
pIC50: −log10 of the molar value.
measure: pIC50

CN1CCN(c2c(Cl)cccc2NC(=O)c2ccc(Br)o2)CC1
6.44
O=C(Nc1cccc(Cl)c1N1CCNCC1)c1ccc(Br)o1
5.39
C#CCN1CCN(c2c(Cl)cccc2NC(=O)c2ccc(Br)o2)CC1
6.85
CC#Cc1ccc(C(=O)Nc2cccc(C)c2N2CCC3(CC2)OCCO3)o1
6.96
C=CCN1CCN(c2c(Cl)cccc2NC(=O)c2ccc[nH]2)CC1
5.35

[I] CCCN1CCN(c2c(Cl)cccc2NC(=O)c2ccc(Br)o2)CC1
[II] C=CCN1CCN(c2c(Cl)cccc2NC(=O)c2cccc(C)n2)CC1
[III] C=CCN1CCN(c2c(Cl)cccc2NC(=O)c2ccc(Br)o2)CC1
Exam item: Task field, ranking: reported pIC50, descending order. Answer by writing out the labels in the requested order.
Marked response: III, I, II

[1] Cc1cccc(NC(=O)c2ccc(C#N)o2)c1N1CCC2(CC1)OCCO2
[2] CC(=O)N1CCN(c2c(Cl)cccc2NC(=O)c2ccc(Br)o2)CC1
[3] O=C(Nc1cccc(Cl)c1N1CCN(c2ccccn2)CC1)c1ccc(Br)o1
[4] Cc1cccc(NC(=O)c2ccc(Cl)o2)c1N1CCC2(CC1)OCCO2
Exam item: Hi! Can you put these in order of pIC50, lowest number first? Please list the labels in the order you were asked to rank them.
Marked response: 3, 2, 1, 4
(3: 5.92, 2: 6.22, 1: 6.64, 4: 7.40)

###

- measured-on: Mitogen-activated protein kinase 10 (Homo sapiens, UniProt P53779)
- Sequence (P53779 whole entry): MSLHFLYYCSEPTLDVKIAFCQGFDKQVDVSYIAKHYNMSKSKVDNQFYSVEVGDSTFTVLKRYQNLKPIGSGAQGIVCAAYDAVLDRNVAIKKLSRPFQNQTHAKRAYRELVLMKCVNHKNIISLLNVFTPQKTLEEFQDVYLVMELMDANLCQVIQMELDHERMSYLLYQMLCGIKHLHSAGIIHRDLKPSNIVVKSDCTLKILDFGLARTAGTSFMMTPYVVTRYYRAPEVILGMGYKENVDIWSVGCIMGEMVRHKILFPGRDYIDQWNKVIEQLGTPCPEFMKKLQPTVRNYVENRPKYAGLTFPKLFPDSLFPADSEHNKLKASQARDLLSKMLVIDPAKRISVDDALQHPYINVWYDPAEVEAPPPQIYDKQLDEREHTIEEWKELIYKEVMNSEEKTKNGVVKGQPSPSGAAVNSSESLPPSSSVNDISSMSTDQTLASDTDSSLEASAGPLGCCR
- assay: Inhibition of JNK3 using biotinylated ATF2 and ATP substrates by HTRF assay
pIC50: −log10 of the molar value.
measure: pIC50

C=CCN1CCN(c2c(Cl)cccc2NC(=O)c2nc(Br)cs2)CC1
5.74

[A] CC(C)N1CCN(c2c(Cl)cccc2NC(=O)c2ccc(Br)o2)CC1
[B] Cc1cccc(NC(=O)c2ccc(C(F)F)o2)c1N1CCC2(CC1)OCCO2
Exam item: // which entry has the larger pIC50 value, A or B ? The response must carry the label of the picked entry.
Marked response: B

[1] C#CCN1CCN(c2c(F)cccc2NC(=O)c2ccc(Br)o2)CC1
[2] O=C(Nc1cccc(Cl)c1N1CCN(CCc2ccccc2)CC1)c1ccc(Br)o1
[3] CC#Cc1ccc(C(=O)Nc2cccc(C)c2N2CCC3(CC2)OCCO3)o1
[4] Cc1cccc(NC(=O)c2ccc(Br)o2)c1N1CCC2(CC1)OCCO2
Exam item: List items by pIC50 in falling order. Arrange the labels as the request states and list them.
Marked response: 4, 3, 1, 2

[P] Cc1cccc(NC(=O)c2ccc(F)o2)c1N1CCC2(CC1)OCCO2
[Q] O=C(Nc1cccc(Cl)c1N1CCN(C2CC2)CC1)c1ccc(Br)o1
[R] Cc1cccc(NC(=O)c2ccc(Cl)o2)c1N1CCC2(CC1)OCCO2
[S] Cc1cccc(NC(=O)c2ccc(Cc3ccccc3)o2)c1N1CCC2(CC1)OCCO2
[T] C=CCN1CCN(c2c(Cl)cccc2NC(=O)c2cccc(Br)n2)CC1
Exam item: Ordering criterion: pIC50; begin with the maximum. Enter labels, ranked according to the request.
Marked response: R, P, Q, T, S
(R: 7.10, P: 6.39, Q: 6.02, T: 5.70, S: 5.32)

[1] C=CCN1CCN(c2c(Cl)cccc2NC(=O)c2cnc(Br)s2)CC1
[2] Cc1ccc(C(=O)Nc2cccc(C)c2N2CCC3(CC2)OCCO3)o1
[3] C=CCN1CCN(c2c(Cl)cccc2NC(=O)c2csc(C)n2)CC1
[4] CCc1ccc(C(=O)Nc2cccc(C)c2N2CCC3(CC2)OCCO3)o1
Exam item: Ordering: ascending pIC50. API: response body holds the labels in the requested order.
Marked response: 3, 4, 2, 1
(3: 5.24, 4: 6.00, 2: 6.28, 1: 6.51)

[P] C=CCN1CCN(c2c(Cl)cccc2NC(=O)c2cccc(Br)c2)CC1
[Q] CC(=O)N1CCN(c2c(Cl)cccc2NC(=O)c2ccc(Br)o2)CC1
[R] C=CCN1CCN(c2c(Cl)cccc2NC(=O)c2ccc(Br)o2)CC1
[S] C=CCN1CCN(c2c(C)cccc2NC(=O)c2ccc(Br)o2)CC1
[T] C=CCN1CCN(c2c(Cl)cccc2NC(=O)c2cccc(C)n2)CC1
Exam item: # ascending order, key=pIC50 Use the labels to give the requested order.
Marked response: P, T, Q, R, S
(P: 5.19, T: 5.70, Q: 6.09, R: 6.48, S: 6.70)

[I] O=C(Nc1cccc(Cl)c1N1CCN(Cc2ccccc2)CC1)c1ccc(Br)o1
[II] C=CCN1CCN(c2c(Cl)cccc2NC(=O)c2ccno2)CC1
[III] C=CCN1CCN(c2c(Cl)cccc2NC(=O)c2ccc[nH]2)CC1
Exam item: Sort by pIC50, descending. Order the labels as requested and give them as your answer.
Marked response: I, II, III
(I: 5.96, II: 5.30, III: 5.05)

[a] CN1CCN(c2c(Cl)cccc2NC(=O)c2ccc(Br)o2)CC1
[b] Cc1cccc(NC(=O)c2ccc(C#N)o2)c1N1CCC2(CC1)OCCO2
Exam item: # argmax over pIC50 for candidates a and b Lab note: record the label of whichever item you select.
Marked response: b
(b: 6.68, a: 5.92)

[1] O=C(Nc1cccc(Cl)c1N1CCN(Cc2ccco2)CC1)c1ccc(Br)o1
[2] CCCN1CCN(c2c(Cl)cccc2NC(=O)c2ccc(Br)o2)CC1
[3] C=C(C)CN1CCN(c2c(Cl)cccc2NC(=O)c2ccc(Br)o2)CC1
[4] CC(=O)Nc1ccc(C(=O)Nc2cccc(C)c2N2CCC3(CC2)OCCO3)o1
Exam item: Sort the 4 compounds by pIC50; largest first, smallest last. I'd appreciate it if you listed the labels in the requested order.
Marked response: 1, 3, 2, 4
(1: 6.60, 3: 6.27, 2: 6.05, 4: 4.96)
